tested-on: (Homo sapiens, UniProt P08069)
Construct: human IGF1R kinase domain residues M954-C1367; made in house; host or cells: baculovirus expression (insect cells)
experiment-notes: IGF1R kinase assay (LCCA), IGF 0P
Assay type: biochemical
measurement-setup: IGF1R kinase LCCA assay
Method: Kinase activity and compound inhibition are investigated using one or more of the three assay formats described below. The ATP concentrations for each assay are selected to be close to the Michaelis-Menten constant (KM) for each individual kinase. […] IGF1R kinase biochemical activity was assessed using a Luciferase-Coupled Chemiluminescent Kinase assay (LCCA) format. Kinase activity was measured as the percent ATP remaining following the kinase reaction. […]
pIC50: −log10 of the molar value.
measure: pIC50

Entry CC(C)c1cc(Nc2nc(NCc3cc(-c4ccccc4)no3)ncc2Br)[nH]n1 has what pIC50?
6.30 to 7.30

Entry CCN(CC)CCCNC(=O)c1ccc(Nc2ncc(C)c(Nc3cc(C4CC4)n[nH]3)n2)cc1 has what pIC50?
5.30 to 6.30

Entry c1ccc(CN2CCc3c(nc(Nc4ccc(N5CCOCC5)cc4)nc3Nc3cc(C4CC4)[nH]n3)C2)cc1 has what pIC50?
< 5.30

Entry CN(C)C(=O)Oc1cccc(Nc2ncc(Br)c(Nc3cc(C4CC4)n[nH]3)n2)c1 has what pIC50?
6.30 to 7.30

---

I'd be grateful if you could share measured IC50 for these entries.
tested-on: IGF 3P (Homo sapiens, UniProt P08069)
Construct: human IGF1R kinase domain residues M954-C1367; made in house; host or cells: baculovirus expression (insect cells)
Sequence (P08069 954-1367): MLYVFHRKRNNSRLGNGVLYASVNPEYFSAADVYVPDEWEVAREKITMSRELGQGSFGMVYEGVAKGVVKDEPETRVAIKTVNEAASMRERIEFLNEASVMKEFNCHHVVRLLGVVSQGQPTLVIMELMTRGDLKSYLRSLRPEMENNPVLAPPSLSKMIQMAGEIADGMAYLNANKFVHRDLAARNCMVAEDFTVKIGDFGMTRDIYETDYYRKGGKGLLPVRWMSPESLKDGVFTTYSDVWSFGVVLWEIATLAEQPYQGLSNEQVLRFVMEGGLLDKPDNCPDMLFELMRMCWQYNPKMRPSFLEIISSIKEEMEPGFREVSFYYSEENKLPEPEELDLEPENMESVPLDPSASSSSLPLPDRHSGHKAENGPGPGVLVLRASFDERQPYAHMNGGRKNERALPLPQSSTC
experiment-notes: IGF1R kinase assay (LCCA), IGF 3P
Assay type: biochemical
measurement-setup: IGF1R kinase LCCA assay

Entry CC(C)(C)OC(=O)N1CCC(CNc2ncc(Br)c(Nc3cc(C4CC4)n[nH]3)n2)CC1 [Example 315] has what IC50?
> 5000 nM

Entry Clc1ccc(-c2ccc(CNc3ncc(Br)c(Nc4cc(C5CC5)n[nH]4)n3)s2)cc1 [Example 324] has what IC50?
> 5000 nM

Entry Cc1cc(Nc2cc(C3CC3)[nH]n2)nc(NCc2ccco2)n1 [Example 563] has what IC50?
500 to 5000 nM

Entry c1cc(Nc2cc(C3CC3)n[nH]2)nc(Nc2ccc(N3CCOCC3)cc2)n1 [Example 224] has what IC50?
500 to 5000 nM

Entry Cc1cc(Nc2cc(C)on2)nc(Nc2ccc(N3CCOCC3)cc2)n1 [Example 295] has what IC50?
> 5000 nM

Entry Cc1cc(Nc2cc(C)on2)nc(NCc2cc(-c3ccccc3)no2)n1 [Example 307] has what IC50?
> 5000 nM

Entry c1ccc(-c2cc(CNc3nc(CN4CCOCC4)cc(Nc4cc(C5CC5)[nH]n4)n3)on2)cc1 [Example 561] has what IC50?
50 to 500 nM

Entry Cc1cc(Nc2ccccc2)nc(Nc2ccc(CCC(=O)NCCN3CCCC3)cc2)n1 [Example 309] has what IC50?
> 5000 nM

Entry CN(c1ccccc1)c1ncc(Br)c(Nc2cc(C3CC3)[nH]n2)n1 [Example 223] has what IC50?
500 to 5000 nM

Entry Brc1cnc(Nc2cccc3ccccc23)nc1Nc1cc(C2CC2)[nH]n1 [Example 130] has what IC50?
50 to 500 nM

Entry COc1cc(Nc2ncc(Br)c(Nc3cc(C4CC4)n[nH]3)n2)cc(C(F)(F)F)c1 [Example 258] has what IC50?
> 5000 nM

Entry CC(C)c1cc(Nc2cc(N3CCN(C)CC3)nc(NCc3cc(-c4ccccc4)no3)n2)n[nH]1 [Example 497] has what IC50?
< 50 nM

Entry CN1CCN(C(=O)CCc2cccc(Nc3ncc(Br)c(Nc4cc(C5CC5)n[nH]4)n3)c2)CC1 [Example 100] has what IC50?
50 to 500 nM

Entry CC(=O)Nc1ccc(Cl)c(Nc2nccc(Nc3cc(C4CC4)[nH]n3)n2)c1 [Example 227] has what IC50?
500 to 5000 nM

Entry Clc1cccc(Nc2nc(Nc3ccccc3Cl)ncc2Br)c1 [Example 205] has what IC50?
500 to 5000 nM

Entry c1cc(Nc2cc(C3CC3)[nH]n2)nc(NCc2cc(C3CCCCC3)no2)n1 [Example 129] has what IC50?
50 to 500 nM

Entry Nc1nc(C2CC2)nn1-c1nc(Nc2ccc(N3CCOCC3)cc2)ncc1Br [Example 284] has what IC50?
> 5000 nM

Entry Cc1cc(Nc2cc(C3CC3)n[nH]2)nc(Nc2ccc(CC#N)cc2)n1 [Example 125] has what IC50?
50 to 500 nM

Entry Fc1cc(F)cc(Nc2ncc(Br)c(Nc3cc(C4CC4)n[nH]3)n2)c1 [Example 313] has what IC50?
> 5000 nM

Entry Cc1cc(Nc2ccc3ccccc3c2)nc(Nc2ccc(N3CCOCC3)cc2)n1 [Example 297] has what IC50?
> 5000 nM

Entry Brc1cnc(Nc2ccncc2)nc1Nc1cc(C2CC2)[nH]n1 [Example 316] has what IC50?
> 5000 nM

Entry COc1ccc(C)cc1Nc1ncc(Br)c(Nc2cc(C3CC3)[nH]n2)n1 [Example 147] has what IC50?
50 to 500 nM

Entry O=C(NCCN1CCOCC1)c1cc(Nc2cc(C3CC3)[nH]n2)nc(NCc2cc(-c3ccccc3)no2)n1 [Example 533] has what IC50?
50 to 500 nM

Entry NC(=O)c1c[nH]nc1Nc1nc(Nc2ccccc2Cl)ncc1Br [Example 332] has what IC50?
> 5000 nM

Entry Cc1cc(Nc2cc(C3CC3)n[nH]2)nc(Nc2ccc(N3CCOCC3)cc2)n1 [Example 268] has what IC50?
> 5000 nM

Entry CC(=O)NCC1CC(n2cc(-c3cccc(OCc4ccccc4)c3)c3c(NC(C)=O)ncnc32)C1 (stereo not shown) [Example 346] has what IC50?
500 to 5000 nM

Entry CN(C)c1ccc(Nc2nccc(Nc3cc(C4CC4)n[nH]3)n2)cc1 [Example 238] has what IC50?
500 to 5000 nM

Entry CCN(CC)CCNc1cc(Nc2cc(C3CC3)[nH]n2)nc(NCc2cc(-c3ccccc3)no2)n1 [Example 45] has what IC50?
< 50 nM

Entry Clc1cccc(-c2ncc(CNc3ncc(Br)c(Nc4cc(C5CC5)[nH]n4)n3)s2)c1 [Example 290] has what IC50?
> 5000 nM

Entry Brc1cnc(NCc2cc(-c3ccccc3)no2)nc1Nc1cc(-c2ccccc2)n[nH]1 [Example 323] has what IC50?
> 5000 nM

Entry Cc1cc(Nc2ccccc2)nc(Nc2ccc(N3CCOCC3)cc2)n1 [Example 567] has what IC50?
500 to 5000 nM

Entry Cc1cc(Nc2n[nH]cc2C#N)nc(NCc2cc(-c3ccccc3)no2)n1 [Example 306] has what IC50?
> 5000 nM

Entry CN1CCN(C(=O)c2cccc(Nc3ncc(Br)c(Nc4cc(C5CC5)n[nH]4)n3)c2)CC1 [Example 128] has what IC50?
50 to 500 nM

Entry Brc1cnc(Nc2ccc(N3CCOCC3)nc2)nc1Nc1cc(C2CC2)n[nH]1 [Example 81] has what IC50?
50 to 500 nM

---

tested-on: (Homo sapiens)
Construct: human IGF1R kinase domain residues M954-C1367; made in house; host or cells: baculovirus expression (insect cells)
experiment-notes: IGF1R kinase assay (LCCA), IGF 0P
Format: biochemical
measurement-setup: IGF1R kinase LCCA assay
pIC50: −log10 of the molar value.
measure: pIC50

Entry c1ccc(-c2cc(CNc3nc(NCCN4CCCCC4)cc(Nc4cc(C5CC5)[nH]n4)n3)on2)cc1 has what pIC50?
6.30 to 7.30

Entry O=S(=O)(c1ccc(Nc2ncc(Br)c(Nc3cc(C4CC4)n[nH]3)n2)cc1)N1CCOCC1 has what pIC50?
5.30 to 6.30

Entry CCN(CC)CCCNc1cc(Nc2cc(C(C)C)[nH]n2)nc(NCc2cc(-c3ccccc3)no2)n1 has what pIC50?
6.30 to 7.30

Entry FC(F)(F)Oc1ccccc1Nc1ncc(Br)c(Nc2cc(C3CC3)n[nH]2)n1 has what pIC50?
6.30 to 7.30

Entry Cc1cc(Nc2cc(C3CC3)n[nH]2)nc(Nc2ccc(CCN3CCOCC3)cc2)n1 has what pIC50?
5.30 to 6.30

Entry Brc1cnc(NCc2cc(-c3ccccc3)no2)nc1Nc1cc(C2CC2)[nH]n1 has what pIC50?
6.30 to 7.30

Entry Brc1cnc(Nc2cccc(OCc3ccccc3)c2)nc1Nc1cc(C2CC2)n[nH]1 has what pIC50?
< 5.30

Entry CC(C)c1cc(Nc2cc(N3CCOCC3)nc(NCc3cc(-c4ccccc4)no3)n2)n[nH]1 has what pIC50?
6.30 to 7.30

Entry CCN(CC)CCNC(=O)c1ccc(Nc2ncc(C)c(Nc3cc(C4CC4)n[nH]3)n2)cc1 has what pIC50?
5.30 to 6.30

Entry Brc1cnc(NC(Cc2ccccc2)c2ccccc2)nc1Nc1cc(C2CC2)[nH]n1 (centres unmarked) has what pIC50?
< 5.30

Entry Cc1cc(Nc2nc(Nc3ccc(N4CCOCC4)cc3)ncc2Br)n(C)n1 has what pIC50?
< 5.30

Entry Brc1cnc(Nc2ccccc2I)nc1Nc1cc(C2CC2)n[nH]1 has what pIC50?
6.30 to 7.30

Entry FC(F)(F)c1ccc(-c2ncc(CNc3ncc(Br)c(Nc4cc(C5CC5)[nH]n4)n3)s2)cc1 has what pIC50?
< 5.30

Entry Fc1cc(F)cc(Nc2ncc(Br)c(Nc3cc(C4CC4)n[nH]3)n2)c1 has what pIC50?
< 5.30

Entry CC(C)c1cc(CNc2ncc(Br)c(Nc3cc(C4CC4)[nH]n3)n2)on1 has what pIC50?
5.30 to 6.30

Entry CN(C)c1ccc(CNc2ncc(Br)c(Nc3cc(C4CC4)n[nH]3)n2)cc1 has what pIC50?
< 5.30

Entry CCN(CC)CCNC(=O)CCc1ccc(Nc2nc(C)cc(Nc3ccccc3)n2)cc1 has what pIC50?
< 5.30

Origin of the recorded values: patent US8211929B2
